Cited source: the supplement of paper PMC9112550

Listing: shrunken log2 fold change of selected sequences
tested on: Escherichia coli TOP10; assay: shrunken log2 fold change of peptide-encoding DNA abundance (4.5 h post-induction vs induction); higher = less antimicrobial activity (less host growth inhibition); settings: time post-induction: 4.5 h; library: site-saturation at positions 5, 18, 19, 20
Hey, just send me the number, nothing else.

Req: Kindly state the measured shrunken log2 fold change obtained for "RRIRWRPPRLPRPRPRPGCKPRP" with Escherichia coli TOP10.
Resp: 0.123

Req: Kindly state the measured shrunken log2 fold change obtained for "RRIRLRPPRLPRPRPRPFQEPRP" with Escherichia coli TOP10.
Resp: -0.274

Req: Kindly state the measured shrunken log2 fold change obtained for "RRIRKRPPRLPRPRPRPMDWPRP" with Escherichia coli TOP10.
Resp: 0.256

Req: Kindly state the measured shrunken log2 fold change obtained for "RRIRKRPPRLPRPRPRPASRPRP" with Escherichia coli TOP10.
Resp: 0.519

Req: Kindly state the measured shrunken log2 fold change obtained for "RRIRNRPPRLPRPRPRPESSPRP" with Escherichia coli TOP10.
Resp: -0.00568

Req: Kindly state the measured shrunken log2 fold change obtained for "RRIRERPPRLPRPRPRPKEPPRP" with Escherichia coli TOP10.
Resp: 0.131

---
Req: Kindly state the measured shrunken log2 fold change obtained for "RRIRNRPPRLPRPRPRPAGYPRP" with Escherichia coli TOP10.
Resp: -0.0215

Req: Kindly state the measured shrunken log2 fold change obtained for "RRIRGRPPRLPRPRPRPNWTPRP" with Escherichia coli TOP10.
Resp: 0.0497

---

Listing: shrunken log2 fold change of selected sequences
test system: Escherichia coli TOP10; assay: shrunken log2 fold change of peptide-encoding DNA abundance (4.5 h post-induction vs induction); higher = less antimicrobial activity (less host growth inhibition); settings: time post-induction: 4.5 h; library: site-saturation at positions 5, 18, 19, 20
Hey, just send me the number, nothing else.

Req: Which shrunken log2 fold change reading was recorded for the sequence "RRIRERPPRLPRPRPRPYHNPRP" ?
Resp: -1.33

---
Req: Which shrunken log2 fold change reading was recorded for the sequence "RRIRERPPRLPRPRPRPWGKPRP" ?
Resp: -0.042

Req: Which shrunken log2 fold change reading was recorded for the sequence "RRIRRRPPRLPRPRPRPQRVPRP" ?
Resp: 0.155

Req: Which shrunken log2 fold change reading was recorded for the sequence "RRIRVRPPRLPRPRPRPMWTPRP" ?
Resp: -0.0192

Req: Which shrunken log2 fold change reading was recorded for the sequence "RRIRKRPPRLPRPRPRPRTKPRP" ?
Resp: 1.08

Req: Which shrunken log2 fold change reading was recorded for the sequence "RRIRLRPPRLPRPRPRPWDEPRP" ?
Resp: 0.066

Req: Which shrunken log2 fold change reading was recorded for the sequence "RRIRQRPPRLPRPRPRPNNEPRP" ?
Resp: -0.885

Req: Which shrunken log2 fold change reading was recorded for the sequence "RRIRERPPRLPRPRPRPAKQPRP" ?
Resp: 0.00996

---

tested on: Escherichia coli TOP10; test: shrunken log2 fold change of peptide-encoding DNA abundance (4.5 h post-induction vs induction); higher = less antimicrobial activity (less host growth inhibition); details: time post-induction: 4.5 h; library: site-saturation at positions 5, 18, 19, 20
Listing: shrunken log2 fold change of selected sequences
Hey, just send me the number, nothing else.

Record excerpt, results attached:
Req: Which shrunken log2 fold change reading was recorded for the sequence "RRIRLRPPRLPRPRPRPPAIPRP" ?
Resp: 2.54

Req: Which shrunken log2 fold change reading was recorded for the sequence "RRIRKRPPRLPRPRPRPTTDPRP" ?
Resp: 0.385

Req: Which shrunken log2 fold change reading was recorded for the sequence "RRIRVRPPRLPRPRPRPYSWPRP" ?
Resp: -0.163

---
Req: Which shrunken log2 fold change reading was recorded for the sequence "RRIRCRPPRLPRPRPRPFDCPRP" ?
Resp: -0.95

Req: Which shrunken log2 fold change reading was recorded for the sequence "RRIRVRPPRLPRPRPRPMKDPRP" ?
Resp: -0.109

Req: Which shrunken log2 fold change reading was recorded for the sequence "RRIRIRPPRLPRPRPRPFQTPRP" ?
Resp: -0.271

---

system: Escherichia coli TOP10; experiment: shrunken log2 fold change of peptide-encoding DNA abundance (4.5 h post-induction vs induction); higher = less antimicrobial activity (less host growth inhibition); settings: time post-induction: 4.5 h; library: site-saturation at positions 5, 18, 19, 20
Note to self: class labels come from recorded shrunken log2 fold change, ranges listed here: bucket 1 = under -0.07, bucket 2 = from -0.07 up to 0.2, bucket 3 = 0.2 and over

# count of solved cases: 5
Req: Categorize the following entry: "RRIRIRPPRLPRPRPRPHGFPRP"
Resp: bucket 1

Req: Categorize the following entry: "RRIRMRPPRLPRPRPRPRCFPRP"
Resp: bucket 3

Req: Categorize the following entry: "RRIRARPPRLPRPRPRPLMCPRP"
Resp: bucket 2

Req: Categorize the following entry: "RRIRIRPPRLPRPRPRPENLPRP"
Resp: bucket 2

Req: Categorize the following entry: "RRIRTRPPRLPRPRPRPYYHPRP"
Resp: bucket 1

---
Req: Categorize the following entry: "RRIRLRPPRLPRPRPRPPCPPRP"
Resp: bucket 3

Req: Categorize the following entry: "RRIRIRPPRLPRPRPRPVLYPRP"
Resp: bucket 1

Req: Categorize the following entry: "RRIRPRPPRLPRPRPRPKACPRP"
Resp: bucket 3

Req: Categorize the following entry: "RRIRQRPPRLPRPRPRPKQMPRP"
Resp: bucket 2

Req: Categorize the following entry: "RRIRQRPPRLPRPRPRPPWKPRP"
Resp: bucket 3

Req: Categorize the following entry: "RRIRPRPPRLPRPRPRPQLWPRP"
Resp: bucket 3

Req: Categorize the following entry: "RRIRKRPPRLPRPRPRPPDFPRP"
Resp: bucket 2

Req: Categorize the following entry: "RRIRMRPPRLPRPRPRPNIEPRP"
Resp: bucket 3

Req: Categorize the following entry: "RRIRVRPPRLPRPRPRPWNRPRP"
Resp: bucket 1

---

tested on: Escherichia coli TOP10; test: shrunken log2 fold change of peptide-encoding DNA abundance (4.5 h post-induction vs induction); higher = less antimicrobial activity (less host growth inhibition); details: time post-induction: 4.5 h; library: site-saturation at positions 5, 18, 19, 20
measured-quantity: shrunken log2 fold change

Record excerpt, results attached:
Req: Which shrunken log2 fold change reading was recorded for the sequence "RRIRYRPPRLPRPRPRPHMHPRP" ?
Resp: -0.988

Req: Which shrunken log2 fold change reading was recorded for the sequence "RRIRHRPPRLPRPRPRPIKFPRP" ?
Resp: -0.0972

For the next question, use this sequence.
Req: Which shrunken log2 fold change reading was recorded for the sequence "RRIRSRPPRLPRPRPRPAMCPRP" ?
Resp: -0.185

---

test system: Escherichia coli TOP10; assay: shrunken log2 fold change of peptide-encoding DNA abundance (4.5 h post-induction vs induction); higher = less antimicrobial activity (less host growth inhibition); settings: time post-induction: 4.5 h; library: site-saturation at positions 5, 18, 19, 20
measured-quantity: shrunken log2 fold change

Req: Which shrunken log2 fold change reading was recorded for the sequence "RRIRTRPPRLPRPRPRPQDKPRP" ?
Resp: -0.658

---
Req: Which shrunken log2 fold change reading was recorded for the sequence "RRIRARPPRLPRPRPRPTEWPRP" ?
Resp: 0.483

Req: Which shrunken log2 fold change reading was recorded for the sequence "RRIRSRPPRLPRPRPRPFCIPRP" ?
Resp: -0.316

---

test system: Escherichia coli TOP10; test: shrunken log2 fold change of peptide-encoding DNA abundance (4.5 h post-induction vs induction); higher = less antimicrobial activity (less host growth inhibition); conditions: time post-induction: 4.5 h; library: site-saturation at positions 5, 18, 19, 20
Note to self: class labels come from recorded shrunken log2 fold change, ranges listed here: 1 = under -0.2, 2 = from -0.2 up to 0.1, 3 = 0.1 and over

# count of solved cases: 3
Req: Categorize the following entry: "RRIRFRPPRLPRPRPRPPVPPRP"
Resp: 3

Req: Categorize the following entry: "RRIRMRPPRLPRPRPRPVNIPRP"
Resp: 1

Req: Categorize the following entry: "RRIRARPPRLPRPRPRPGHAPRP"
Resp: 3

---
Req: Categorize the following entry: "RRIRVRPPRLPRPRPRPGALPRP"
Resp: 2

Req: Categorize the following entry: "RRIRYRPPRLPRPRPRPPVWPRP"
Resp: 2

Req: Categorize the following entry: "RRIRERPPRLPRPRPRPSCTPRP"
Resp: 1

Req: Categorize the following entry: "RRIRTRPPRLPRPRPRPLSNPRP"
Resp: 2

Req: Categorize the following entry: "RRIRFRPPRLPRPRPRPGMTPRP"
Resp: 2

Req: Categorize the following entry: "RRIRRRPPRLPRPRPRPEKIPRP"
Resp: 3

---

tested on: Escherichia coli TOP10; test: shrunken log2 fold change of peptide-encoding DNA abundance (4.5 h post-induction vs induction); higher = less antimicrobial activity (less host growth inhibition); conditions: time post-induction: 4.5 h; library: site-saturation at positions 5, 18, 19, 20;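 further: peptides expressed intracellularly from a pBAD plasmid library in pooled LB shake-flask culture, induced with 0.3% L-arabinose, DNA abundance read by NGS, three biological replicates, DESeq2 with apeglm shrinkage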
Kind request: treat -0.06 as inclusive, so shrunken log2 fold change at -0.06 or higher is T, anything lower is F.

Req: I'd appreciate it if you could say whether "RRIRHRPPRLPRPRPRPYCCPRP" has shrunken log2 fold change at least equal to -0.06.
Resp: F

---
Req: I'd appreciate it if you could say whether "RRIRRRPPRLPRPRPRPYFQPRP" has shrunken log2 fold change at least equal to -0.06.
Resp: F

Req: I'd appreciate it if you could say whether "RRIRWRPPRLPRPRPRPLHIPRP" has shrunken log2 fold change at least equal to -0.06.
Resp: F

Req: I'd appreciate it if you could say whether "RRIRYRPPRLPRPRPRPEITPRP" has shrunken log2 fold change at least equal to -0.06.
Resp: F

Req: I'd appreciate it if you could say whether "RRIRFRPPRLPRPRPRPWDSPRP" has shrunken log2 fold change at least equal to -0.06.
Resp: F

Req: I'd appreciate it if you could say whether "RRIRMRPPRLPRPRPRPDTNPRP" has shrunken log2 fold change at least equal to -0.06.
Resp: T

Req: I'd appreciate it if you could say whether "RRIRARPPRLPRPRPRPFHKPRP" has shrunken log2 fold change at least equal to -0.06.
Resp: F

Req: I'd appreciate it if you could say whether "RRIRVRPPRLPRPRPRPYYAPRP" has shrunken log2 fold change at least equal to -0.06.
Resp: F

Req: I'd appreciate it if you could say whether "RRIRCRPPRLPRPRPRPSMSPRP" has shrunken log2 fold change at least equal to -0.06.
Resp: F

Req: I'd appreciate it if you could say whether "RRIRQRPPRLPRPRPRPISGPRP" has shrunken log2 fold change at least equal to -0.06.
Resp: T

Req: I'd appreciate it if you could say whether "RRIRFRPPRLPRPRPRPKYTPRP" has shrunken log2 fold change at least equal to -0.06.
Resp: F

Req: I'd appreciate it if you could say whether "RRIRYRPPRLPRPRPRPGLVPRP" has shrunken log2 fold change at least equal to -0.06.
Resp: F
